Reference source for all entries: the supplement of paper PMC11780869

test system: Bacillus subtilis; experiment: cleaved RNA product abundance (RNA/gDNA barcode ratio) relative to median wild-type variant (ratio to wild type); higher = more accumulation of the downstream cleavage product; details: experiment (reporter, strain, medium): exp 4a: truncated aprE reporter, strain BJT201 with 2% xylose (RNase J1 expressed); cleavage site: cggR-gapA (positions -7 to +36 mutated)
Label rule, in plain words: cleaved RNA product abundance of 0.2 and up is MET, under 0.2 is NOT MET.

Prompt: Form field: cleaved RNA product abundance at least 0.2? Entry: `ACAGACGAAGGAGCCGCAAAGACGTTATTAAGGGATCAATAATCCCTCAATATAAATATCTCTCACTTATTTAAA`
Completion: MET

Prompt: Please indicate if the recorded cleaved RNA product abundance for `ACAGACGAAGGAGCCGCAAACAAGTTATTAAGGGATGAATAATCCCCCAATATAAATATCTCTCACTTATTTAAA` meets or exceeds 0.2.
Completion: NOT MET

Prompt: Check if cleaved RNA product abundance >= 0.2 (inclusive). Item: `ACAGACGAAGGAGCCGCTAAGAAGTTATTAAGGGATGAATAATCCCACAATATAAATATCTCTCACTTATTTAAA`
Completion: MET

Prompt: API: above_or_equal(metric=cleaved RNA product abundance, cutoff=0.2) for item `ACAGACGAAGGAGCCGCAAAGAAGTCAATAAGGGATGAATAATCCCTCAATATAAATATCTCTCACTTATTTAAA`
Completion: MET

Prompt: Is cleaved RNA product abundance for `ACAGACGAAGGAGCCGCAAAGAAGTTATTAAAGGATGAATAATCCCTGAATATAAATATCTCTCACTTATTTAAA` at or above 0.2?
Completion: NOT MET

Prompt: Does cleaved RNA product abundance meet or surpass 0.2 for `ACAGACGAAGGAGCCGCAAAGAAGTTATTAAAGGATGAATAATCCCTCAATATAAATACCTCTCACTTATTTAAA` ?
Completion: NOT MET

Prompt: Reported cleaved RNA product abundance at or above 0.2? `ACAGACGAAGGAGCCGCAAAGATGTTATTAAGGAATGAATAATCCCTCAATATAAATATCTCTCACTTATTTAAA`
Completion: NOT MET

Prompt: Can `ACAGACGAAGGAGCCGCAAAGAAGTTATTAAGGGTTGAATAATCCCTCAATATACATATCTCTCACTTATTTAAA` be said to have cleaved RNA product abundance at or above 0.2?
Completion: MET

Prompt: Decide: cleaved RNA product abundance of `ACAGACGAAGGAGCCGCAAAAAAGTTATTAATGGATGAATAATCCCTCAATATAAATATCTCTCACTTATTTAAA` >= 0.2?
Completion: NOT MET

Prompt: Check the entry `ACAGACGAAGGAGCCGCAAAGAAATTATTAATGGATGAATAATCCCTCAATATAAATATCTCTCACTTATTTAAA` : does cleaved RNA product abundance equal or exceed 0.2?
Completion: NOT MET

Prompt: Hi, just wondering whether `ACAGACGAAGGAGCCGCAAAGAAGTTATTAAGGTATGAATCATCCCTCAATATAAATATCTCTCACTTATTTAAA` shows cleaved RNA product abundance of 0.2 or higher.
Completion: NOT MET
